target: T1, HLA A*11:01 (human); test: competition with radiolabeled peptide, purified HLA A*11:01
T1 construct: purified HLA A*11:01 molecules
experimental-readout: pIC50
Entry type: numeric. Quantity: pIC50, the -log10 of concentration in molar units.

Query block: Param item = VLYVGSKTK (synthetic 9-mer; also called the 9 mer) [alpha-syn peptide aa37VLYVGSKTKaa45] ; retrieve measured pIC50.
Result block: 6.79

These entries and their values trace back to patent US20200095296A1.
